assay.info: in vivo
run.conditions: rat, in vivo, iv, Blood, Mean % Injected Dose/Gram, 60 min, unfasted male fisher rats, average of 4 rats
value.type: tissue uptake at 1 h (%ID/g)
The response must be a number in %ID/g with no trailing unit.

-- ask State the recorded tissue uptake at 1 h for this entry: NC1(C(=O)O)CC([18F])C1 (stereo not shown) [[^18 F]FACBC]
-- reply 0.32

###

assay.info: in vivo
run.conditions: rat, in vivo, iv, Testis, Mean % Injected Dose/Gram
value.type: tissue uptake at 1 h

-- ask State the recorded tissue uptake at 1 h for this entry: NC1(C(=O)O)CC([18F])C1 (stereo not shown) [[^18 F]FACBC]
-- reply 0.28 %ID/g

###

assay.info: in vivo
run.conditions: rat, in vivo, iv, Spleen, Mean % Injected Dose/Gram
value.type: tissue uptake at 5 min
# output: numeric value plus its unit

-- ask State the recorded tissue uptake at 5 min for this entry: NC1(C(=O)O)CC([18F])C1 (stereo not shown) [[^18 F]FACBC]
-- reply 1.55 %ID/g

###

assay.info: in vivo
run.conditions: rat, in vivo, iv, Muscle, Mean % Injected Dose/Gram
value.type: tissue uptake at 1 h (%ID/g)
The response must be a number in %ID/g with no trailing unit.

-- ask State the recorded tissue uptake at 1 h for this entry: NC1(C(=O)O)CC([18F])C1 (stereo not shown) [[^18 F]FACBC]
-- reply 0.41

###

assay.info: in vivo
run.conditions: rat, in vivo, iv, Brain (B), Mean % Injected Dose/Gram
value.type: tissue uptake at 1 h
# output: numeric value plus its unit

-- ask State the recorded tissue uptake at 1 h for this entry: NC1(C(=O)O)CC([18F])C1 (stereo not shown) [[^18 F]FACBC]
-- reply 0.26 %ID/g

###

assay.info: in vivo
run.conditions: rat, in vivo, iv, Kidney, Mean % Injected Dose/Gram
Experimental: In vivo distribution of a compound of the invention, [^18 F]-1-amino-3-fluoro-cyclobutane-1-carboxylic acid (FACBC) was measured in rats having an implanted gliosarcoma. Accumulation in various tissue was measured at 5 min and 60 min post-administration. Distribution of Radioactivity in Tissues of Unfasted Male Fisher Rats following Intravenous Administration of [^18 F]FACBC
value.type: tissue uptake at 1 h

-- ask State the recorded tissue uptake at 1 h for this entry: NC1(C(=O)O)CC([18F])C1 (stereo not shown) [[^18 F]FACBC]
-- reply 0.6 %ID/g

###

assay.info: in vivo
run.conditions: rat, in vivo, iv, Bone, Mean % Injected Dose/Gram, 5 min, unfasted male fisher rats, average of 4 rats
value.type: tissue uptake at 5 min
# output: numeric value plus its unit

-- ask State the recorded tissue uptake at 5 min for this entry: NC1(C(=O)O)CC([18F])C1 (stereo not shown) [[^18 F]FACBC]
-- reply 0.52 %ID/g

###

assay.info: in vivo
run.conditions: rat, in vivo, iv, Lung, Mean % Injected Dose/Gram
value.type: tissue uptake at 5 min

-- ask State the recorded tissue uptake at 5 min for this entry: NC1(C(=O)O)CC([18F])C1 (stereo not shown) [[^18 F]FACBC]
-- reply 1.13 %ID/g

###

assay.info: in vivo
run.conditions: rat, in vivo, iv, Blood, Mean % Injected Dose/Gram, 5 min, unfasted male fisher rats, average of 4 rats
Procedure: In vivo distribution of a compound of the invention, [^18 F]-1-amino-3-fluoro-cyclobutane-1-carboxylic acid (FACBC) was measured in rats having an implanted gliosarcoma. Accumulation in various tissue was measured at 5 min and 60 min post-administration. Distribution of Radioactivity in Tissues of Unfasted Male Fisher Rats following Intravenous Administration of [^18 F]FACBC
value.type: tissue uptake at 5 min (%ID/g)
The response must be a number in %ID/g with no trailing unit.

-- ask State the recorded tissue uptake at 5 min for this entry: NC1(C(=O)O)CC([18F])C1 (stereo not shown) [[^18 F]FACBC]
-- reply 0.58
